- System: HCC70 triple negative breast cancer cell line
- assay-procedure: resazurin cytotoxicity assay, HCC70 cells
- Type: cell-based
- assay-conditions: Homo sapiens, HCC70, 96 h, read-out: EC50 and Standard deviation, HCC70, HCC70 cells, 96 h treatment, resazurin assay
pEC50: −log10 of the molar value.
reported-property: pEC50

compound	readout-value
CC[C@H](C=C[C@@H](C)[C@H]1CC[C@H]2[C@@H]3CC=C4C[C@@H](O)CC[C@]4(C)[C@H]3CC[C@]12C)C(C)C	< 3.60

Consider the record given below.
# query: pEC50 of entry CC[C@H](/C=C/[C@@H](C)C1CCC2C3CC=C4C[C@@H](OC(C)=O)CC[C@]4(C)C3CC[C@@]21C)C(C)C (some centres unmarked) [Compound 2, Stigmasterol acetate]
< 3.60

###

reported-property: melting point

compound	melting point
CC[C@@H](C(C)C)C(O)C(O)[C@@H](C)[C@H]1CC[C@H]2[C@@H]3CC(O)C4(O)C[C@@H](O)CC[C@]4(C)[C@H]3CC[C@]12C (stereo partly drawn)	201 to 204 °C
CC[C@H](C=C[C@@H](C)[C@H]1CC[C@H]2[C@@H]3C(=O)C=C4CC(=O)CC[C@]4(C)[C@H]3CC[C@]12C)C(C)C	152 to 155 °C
CC[C@H](C=C[C@@H](C)[C@H]1CC[C@H]2[C@@H]3CC4OC45C[C@@H](O)CC[C@]5(C)[C@H]3CC[C@]12C)C(C)C (stereo partly drawn)	142 to 145 °C
CC[C@@H](C(C)C)C(O)C(O)[C@@H](C)C1CCC2C3C(=O)C(O)C4(O)CC(=O)CC[C@]4(C)C3CC[C@@]21C (stereo partly drawn)	183 to 187 °C
CC[C@H](/C=C/[C@@H](C)C1CCC2C3CC=C4C[C@@H](OC(C)=O)CC[C@]4(C)C3CC[C@@]21C)C(C)C (stereo partly drawn) [Compound 2, Stigmasterol acetate]	139 to 141 °C

# query: melting point of entry CC[C@@H](C(C)C)C(O)C(O)[C@@H](C)[C@H]1CC[C@H]2[C@@H]3C(=O)C=C4CC(=O)CC[C@]4(C)[C@H]3CC[C@]12C (stereo partly drawn)
137 to 140 °C

###

- Test system: MCF-7 hormone receptor-positive breast cancer cell line
- assay-procedure: resazurin cytotoxicity assay, MCF-7 cells
- Assay type: cell-based
- assay-conditions: EC50 against MCF12A cells ÷ EC50 against MCF-7 cells
reported-property: SI (selectivity index), MCF-7

Illustrative cases are given below, each with its answer.
compound	system	readout-value
CC[C@@H](C(C)C)C(O)C(O)[C@@H](C)C1CCC2C3CC4OC45C[C@@H](O)CC[C@]5(C)C3CC[C@@]21C (stereo partly drawn) [Compound 5, 5,6-Epoxystigmasta-3β,22,23-triol]	MCF-7 hormone receptor-positive breast cancer cell line	0.69
CC[C@@]1(O)C(=O)OCc2c1cc1n(c2=O)Cc2cc3ccccc3nc2-1 [Camptothecin, reference compound]	MCF-7 hormone receptor-positive breast cancer cell line	1.00
CC[C@H](C=C[C@@H](C)[C@H]1CC[C@H]2[C@@H]3C(=O)C=C4CC(=O)CC[C@]4(C)[C@H]3CC[C@]12C)C(C)C [Compound 3, Stigmasta-5,22-dien-3,7-dione]	MCF-7 hormone receptor-positive breast cancer cell line	0.70
CC[C@@H](C(C)C)C(O)C(O)[C@@H](C)[C@H]1CC[C@H]2[C@@H]3CC(O)C4(O)C[C@@H](O)CC[C@]4(C)[C@H]3CC[C@]12C (stereo partly drawn) [Compound 6, Stigmastane-3β,5,6,22,23-pentol]	MCF-7 hormone receptor-positive breast cancer cell line	0.51

Consider the record given below.
# query: SI (selectivity index), MCF-7 of entry CC[C@@H](C(C)C)C(O)C(O)[C@@H](C)[C@H]1CC[C@H]2[C@@H]3C(=O)C=C4CC(=O)CC[C@]4(C)[C@H]3CC[C@]12C (some centres unmarked) [Compound 7, Stigmasta-5-en-3,7-dion-22,23-diol]
1.36

Measured values drawn from paper PMC10496295 for this set.
